study-system: LPA2 10-mer (Homo sapiens)
pKd: −log10 of the molar value.
measured-attribute: pKd

>>> value("NHERF-2 PDZ2 (N2P2) PDZ2, Q15599 (protein) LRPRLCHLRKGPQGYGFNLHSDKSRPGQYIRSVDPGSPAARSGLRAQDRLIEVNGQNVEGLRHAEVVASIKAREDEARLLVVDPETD")
4.94
